test system: HBV rcDNA; assay: HepDE19 assay with bDNA quantitation of HBV rcDNA; format: cell-based, hepatitis B virus; conditions: Hepatitis B virus, HepDE19, HepDE19 assay, inhibition of formation of rcDNA; read-out: DE-19bDNA EC50
pEC50: −log10 of the molar value.
The label depends only on pEC50: true if it is at least 6, false if it is smaller.

Identify whether the reported pEC50 of the following compound is 6 or greater: Cc1cc(NC(=O)N(C)[C@H](C)c2c[nH]c(=O)c3ccccc23)ccc1F
true

Identify whether the reported pEC50 of the following compound is 6 or greater: CCN(C(=O)Nc1ccc(F)c(Cl)c1)C(c1cnc(OC)c2ccccc12)C(C)C (single isomer, unassigned)
false

Identify whether the reported pEC50 of the following compound is 6 or greater: CC(NC(=O)Nc1ccc(F)c(Cl)c1)c1c[nH]c(=O)c2ccccc12 (single isomer, unassigned)
false

Identify whether the reported pEC50 of the following compound is 6 or greater: COc1ncc(CN(C(=O)Nc2ccc(F)c(Cl)c2)C(C)C)c2ccccc12
false

Identify whether the reported pEC50 of the following compound is 6 or greater: C[C@H](c1c[nH]c(=O)c2ccccc12)N(C)C(=O)Nc1ccc(F)c(C(F)(F)F)c1
true

Identify whether the reported pEC50 of the following compound is 6 or greater: CN(Cc1c[nH]c(=O)c2ccccc12)C(=O)Nc1ccc(F)c(Cl)c1
true

Identify whether the reported pEC50 of the following compound is 6 or greater: CCCN(C(=O)Nc1ccc(F)c(Cl)c1)[C@H](C)c1c[nH]c(=O)c2ccccc12
true

Identify whether the reported pEC50 of the following compound is 6 or greater: COc1ncc(CN(C(=O)Nc2ccc(F)c(Cl)c2)C2CC2)c2ccccc12
false

Identify whether the reported pEC50 of the following compound is 6 or greater: CCN(Cc1cncc2ccccc12)C(=O)Nc1ccc(F)c(Cl)c1
false

Identify whether the reported pEC50 of the following compound is 6 or greater: CC(c1c[nH]c(=O)c2ccccc12)N(CCCN)C(=O)Nc1ccc(F)c(Cl)c1 (racemic) [Compound 157]
false

Identify whether the reported pEC50 of the following compound is 6 or greater: CC(C)N(Cc1c[nH]c(=O)c2ccccc12)C(=O)Nc1ccc(F)c(Cl)c1
true

Identify whether the reported pEC50 of the following compound is 6 or greater: COCCCn1cc(C(C)N(C)C(=O)Nc2ccc(F)c(Cl)c2)c2ccccc2c1=O (single isomer, unassigned)
true

Identify whether the reported pEC50 of the following compound is 6 or greater: CNS(=O)(=O)CCCN(C(=O)Nc1ccc(F)c(Cl)c1)C(C)c1c[nH]c(=O)c2ccccc12 (single isomer, unassigned)
true
